Below: a set of entries, each annotated with reported growth inhibition.
Experiment: NCI Yeast Anticancer Drug Screen. Data for the sgs1 mgt1 strain (AID 161);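 further: 0% = growth of cultures given vehicle only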
Conditions: S. cerevisiae sgs1 mgt1 strain, at 50.0 µM (retest, dose inferred, filed as 5.0), hits give high values
The panel holds about 79,000 compounds, 15% with a hit somewhere; the sample as a whole holds those more often.
Just the number in %, nothing appended.

Compound	Output unit	Meas value
O=[N+]([O-])c1cc[n+]([O-])c2ccccc12	%	99
c1ccc(C(c2ccccc2)c2cccnc2)cc1	%	98

Okay, now this compound:
Lab note: Nc1ccc(C(=O)O)c(C(=O)O)c1.[Cl][Sn]([Cl])([Cl])[Cl] gave growth inhibition of 36

###

Test: NCI Yeast Anticancer Drug Screen. Data for the cln2 rad14 strain (AID 165);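 further: 0% = growth equal to vehicle treated cultures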
Conditions: S. cerevisiae cln2 rad14 strain, at 50.0 µM (retest, dose inferred, filed as 5.0), hits give high values
Compounds without any hit were thinned out: in the full panel of roughly 79,000, 15% have a hit. Active and inactive are the calls of the source. No stated cut-off is given here; in the data, active means growth inhibition above about 70%; inactive means the rest.
Measured endpoint: growth inhibition

Some solved cases for reference:
Compound	Measured endpoint	Meas value
CC[CH](C)[Sn](=[O])[c]1ccccc1 (stereo not given)	growth inhibition	90% (active)
NC(=S)C1=C(N)Oc2c(c(=O)oc3ccccc23)C1c1ccc(Br)cc1 (stereo not given)	growth inhibition	85% (active)
Cc1ccc([NH-])cc1C.Cc1ccc([NH-])cc1C.[Cl][Pt+2][Cl]	growth inhibition	12% (inactive)
CCN(CC)C(=S)[S-].CCN(CC)C(=S)[S-].O=C(O)CC([S-])C(=O)O.[Fe+3] (stereo not given)	growth inhibition	98% (active)
O=c1s[se]c2ccccc12	growth inhibition	98% (active)

Consider O=P(O)(Oc1ccccc1)Oc1ccccc1.[Ag] . Its measured growth inhibition is 99% (active)

###

Assay: NCI Yeast Anticancer Drug Screen. Data for the mlh1 rad18 strain (AID 175)
Details: S. cerevisiae mlh1 rad18 strain growth inhibition; at 5.0 µM (retest, dose inferred, filed as 0.5); hits give high values
Compounds without any hit were thinned out: in the full panel of roughly 79,000, 15% have a hit.
Catalogue of compounds with associated growth inhibition
Please give a number only; it is taken to be in %.

Compound	Output unit	growth inhibition
C[CH2][Sn]([CH2]C)([CH2]C)[CH2]C	%	-8
Oc1c(O)c(Br)c(Br)c(Br)c1Br	%	98
C[N+](C)(C)CC1CCCC(C[N+](C)(C)C)C1O (stereo unspecified)	%	0
O=C(NCC1(O)N=C(c2ccc(F)cc2)c2ccsc2-n2cccc21)c1ccc(Cl)cc1Cl (stereo unspecified)	%	6
[N-]=[N+]=NC1(N=[N+]=[N-])C(=O)NN=C(c2ccccc2)C1=O (stereo unspecified)	%	31

The recorded growth inhibition for entry COc1ccc([As+](c2ccccc2)(c2ccccc2)c2ccccc2)cc1 equals 91

GET /value?item= ClCCN(Cc1ccccc1)CC1COc2ccccc2O1 (stereo unspecified) &field=growth inhibition returns 15

Please fill in: growth inhibition reported for CCCNC1=C(C)C(=O)C2=C(C1=O)[C@H](COC(N)=O)[C@]1(OC)[C@@H]3N[C@@H]3CN21 = 47

Measured growth inhibition of CCCCCCCC[As](C)(=O)O : -144

Reported growth inhibition of CCC1(O)C(=O)OCc2c1cc1n(c2=O)Cc2cc3cc(C)ccc3nc2-1 (stereo unspecified) : 36

Noted for CC1CCN(C(CC(=O)c2ccccc2)C(=O)c2ccccc2)CC1 (stereo unspecified) : its growth inhibition reads -2

###

Test: NCI Yeast Anticancer Drug Screen. Data for the rad50 strain (AID 155);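 further: 0% = growth of vehicle-only cultures of the same strain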
Conditions: S. cerevisiae rad50 strain growth inhibition; at 50.0 µM (retest, dose inferred, filed as 5.0)
Procedure: Growth inhibition of yeast strains with defined genetic alterations is measured as a screen for potential anti-cancer activity. Selected strains with alterations in DNA damage repair or cell cycle control were exposed to compounds and growth inhibition was measured relative to vehicle treated controls. The strain used in this assay is rad50
Compounds without any hit were thinned out: in the full panel of roughly 79,000, 15% have a hit. Activity calls are given as the source filed them. Cut-off read from the data, not from the text of the source: active = growth inhibition above about 70%; inactive = the rest.
Select the matching outcome among yes (1) (active), no (0) (inactive)

The following compounds have reported results that may help.
Compound	Label
CC(=O)[O-].CC(=O)[O-].O=C(N/N=C/c1cc(Cl)cc(Cl)c1[OH2+])c1ccncc1.[Co+2]	no (0)
CCC[CH2][Sn]([CH2]CCC)[S]CC(N)C(=O)O (centres undefined)	yes (1)
CN1C(=O)C23CC4=CC=CC(O)C4N2C(=O)C1(CO)SS3 (centres undefined)	yes (1)
COC1(O[C@H]2CC[C@H]3[C@@H]4CCC5=CC(=O)CC[C@]5(C)[C@H]4CC[C@]23C)CCCCC1	no (0)
CC1(C(=O)O)CCCC2(C)c3cc(O)ccc3CCC12 (centres undefined)	yes (1)
O=C([O][Hg][CH2]C1COC([CH2][Hg][O]C(=O)c2ccccc2)CO1)c1ccccc1 (centres undefined)	yes (1)
CNP(=O)(Oc1cc(Cl)c(Cl)cc1Cl)N1CCN(c2ccccc2)CC1 (centres undefined)	yes (1)
O=C(O)C(Br)C(Br)C(=O)O.[Ag] (centres undefined)	yes (1)

Pending compound:
GET /call?item= CC(=O)O[C@H]1C(=O)O[C@@H]2C[C@H]3C(C)=CC(=O)[C@@H](O)[C@]3(C)[C@H]3[C@@]4(O)OC[C@]32[C@@H]1[C@@H](C)[C@H]4O returns the recorded outcome of this test. yes (1)

###

Test: NCI Yeast Anticancer Drug Screen. Data for the mlh1 rad18 strain (AID 175)
Conditions: S. cerevisiae mlh1 rad18 strain growth inhibition; at 50.0 µM
The panel holds about 79,000 compounds, 15% with a hit somewhere; the sample as a whole holds those more often. Activity calls are given as the source filed them. Cut-off read from the data, not from the text of the source: active = growth inhibition above about 70%; inactive = the rest.
# valid calls are active, inactive; nothing else

Test call for this compound, please: CN1CCC(OC(=O)Oc2ccccc2)(c2ccccc2)CC1 inactive

Call for entry CCOP(=O)(OCC)/C(C#N)=C(\C)c1ccco1 : inactive

Tell me the recorded outcome of this test for O=C(Cc1ccccc1)OCc1ccco1 . inactive

###

Assay: NCI Yeast Anticancer Drug Screen. Data for the mlh1 rad18 strain (AID 175)
Conditions: S. cerevisiae mlh1 rad18 strain growth inhibition; at 50.0 µM; hits give high values
Method: Growth inhibition of yeast strains with defined genetic alterations is measured as a screen for potential anti-cancer activity. Selected strains with alterations in DNA damage repair or cell cycle control were exposed to compounds and growth inhibition was measured relative to vehicle treated controls. The strain used in this assay is mlh1 rad18
This is part of a sample that, as a whole, favours compounds with a hit. Of some 79,000 tested, about 15% had one in any assay.
Each entry below carries its recorded growth inhibition.
Dear colleague, please return just the value in %, with no unit written.

Known growth inhibition results, listed for orientation:
Compound	growth inhibition / %
CC(C)(Cl)[N+](=O)[O-]	16.6
CC(C)(C)C1(C)CN(N=O)C(=O)O1 (configuration not stated)	-15.5
COC(=O)C1(C(=O)OC)Cc2ccc(C)cc2C2=C1C(=O)c1ccccc1C2=O	7.85
S=C(N/N=C/c1ccc(Cl)cc1)NC1CN2CCC1CC2 (configuration not stated)	11.7
COP(=O)(OC)OC1C(=O)NC(=O)NC1=O	17.9

Kindly note the recorded growth inhibition for NC(=S)c1cc(N(CCCl)CCCl)c([N+](=O)[O-])cc1[N+](=O)[O-] , which is -22.5

The compound COC(=O)C1=C(C(=O)OC)C2(OC(C)=O)c3ccccc3-c3ccccc3C12 (configuration not stated) showed growth inhibition equal to 91.2

###

Assay: NCI Yeast Anticancer Drug Screen. Data for the cln2 rad14 strain (AID 165);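 further: 0% = growth equal to vehicle treated cultures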
Details: S. cerevisiae cln2 rad14 strain, at 50.0 µM
The panel holds about 79,000 compounds, 15% with a hit somewhere; the sample as a whole holds those more often. The source made the active and inactive calls. No stated cut-off is given here; in the data, active means growth inhibition above about 70%; inactive means the rest.
Hi there, use one of these labels in your reply, thanks! Y = active, N = inactive

Here are 5 molecules together with their reported answers.
Molecule	Label
COc1ccc(C=O)cc1	N
COc1cc2c(cc1OC)[N+]1(C)CCC3OCCC4C[N+]5(C)CCC26C5CC4C3C61 (stereo unspecified)	N
Cc1cccc2c(=O)c([Se]c3coc4c(C)cccc4c3=O)coc12	N
O=C(CBr)Nc1ccc(Cl)cc1	Y
C[AsH](C)CC[AsH](C)C.C[AsH](C)CC[AsH](C)C.C[AsH](C)CC[AsH](C)C.[Ni]	Y

What is the recorded call for this molecule in the test? COc1cc2c(cc1OC)C(OC)N(C)c1c-2ccc2cc3c(cc12)OCO3 (stereo unspecified) N

Record request — test call for CC(=N\O)/C(C)=N/O.CC(=N\O)/C(C)=N/O.[Ni] N

###

Assay: NCI Yeast Anticancer Drug Screen. Data for the cln2 rad14 strain (AID 165);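 further: 0% = growth equal to vehicle treated cultures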
Settings: S. cerevisiae cln2 rad14 strain, at 50.0 µM, hits give high values
Compounds without any hit were thinned out: in the full panel of roughly 79,000, 15% have a hit.
Rule: 1 for growth inhibition not less than 10%, -1 for anything less.

Examples with answers:
Compound	Label
CS[P+]1(C)C=C(N2CCOCC2)CC1 (stereo unspecified)	-1
O=C1C(=O)c2ccccc2C(O)=C1CN(CCCl)CCCl	-1
O=C(COc1ccc(Cl)c(Cl)c1)NCCc1cc[n+](Cc2ccc(Cl)cc2S(=O)(=O)F)cc1	1
CC1c2c(n(C)c3ccccc23)C2CCC3(CO3)C1N2Cc1ccccc1 (stereo unspecified)	1
CCC(C)(C)OC(=O)CCl	-1

API: above_or_equal(metric=growth inhibition, cutoff=10%) for item BrP(NC1CCCCCC1)(c1ccccc1)(c1ccccc1)c1ccccc1 1

// inclusive: growth inhibition at least 10%? input: Cc1ccc2[nH]c(=S)n(-c3ccc(Cl)cc3)c(=O)c2c1 1

Evaluate C[CH2][Sn]([F])([CH2]C)[CH2]C : growth inhibition at minimum 10%? 1

Item COc1ccc(CC#N)cc1 with growth inhibition of 10% or above? -1
